Tested on: HCT-116
experiment_description: High-throughput calcein AM cytotoxicity assay, HCT-116
Format: cell-based, human
run_conditions: HCT-116 cells; read-out: IC50, HCT-116
test_readout: IC50

Sample answers from the record:
{"molecule": "CON(C1CCC2(C)C(CCC3C2CCC2(C)C(C4=CC(=O)OC4)CCC32O)C1)C1CC(O)C(O)C(CO)O1 [9α, 2-deoxy-D-galactoside]", "experimental_system": "HCT-116", "IC50": "> 25 µM"}
{"molecule": "CON([C@H]1CC[C@@]2(C)[C@H](CC[C@@H]3[C@@H]2CC[C@]2(C)[C@@H](C4=CC(=O)OC4)CC[C@]32O)C1)[C@H]1OC[C@H](O)[C@H](O)[C@H]1O [32β, L-arabinoside]", "experimental_system": "HCT-116", "IC50": "0.3 µM"}

# context switch: different molecule, same IC50
Retrieve IC50 on HCT-116; query CON(C1CCC2(C)C(CCC3C2CCC2(C)C(C4=CC(=O)OC4)CCC32O)C1)C1OC(CO)C(O)C(O)C1O [17α, L-alloside] > 25 µM

The measurements presented in this section are drawn from patent US8507411B2.
